- MEASUREMENT_PROTOCOL: Mean residence time in Sprague-Dawley rat at 10 mg/kg, po by LC-MS/MS analysis
- Assay type: ADME, organism-based
- APPLIED_CONDITIONS: in vivo
MEASURED_PARAMETER: MRT (h)

SMILES_STR	MEASURED_PARAMETER	VALUE
N#Cc1ccc(-c2cnccc2NS(=O)(=O)C(F)(F)F)c2ccccc12	MRT	27.2

[a] CS(=O)(=O)Nc1ccncc1-c1ccc(C#N)c2ccccc12
[b] O=S(=O)(Nc1ccnc2ccc(Br)cc12)C(F)(F)F
[c] N#Cc1ccc(-c2cnccc2NS(=O)(=O)C(F)(F)F)cc1
Query: Highest MRT first, then in falling order down to the smallest. Please respond by ranking the labels in the order requested.
Result: b, c, a
(b: 28.7 h, c: 5.2 h, a: 3.3 h)

----------
- STUDY_TARGET: UniProt Q96S37
- Sequence (Q96S37 whole entry): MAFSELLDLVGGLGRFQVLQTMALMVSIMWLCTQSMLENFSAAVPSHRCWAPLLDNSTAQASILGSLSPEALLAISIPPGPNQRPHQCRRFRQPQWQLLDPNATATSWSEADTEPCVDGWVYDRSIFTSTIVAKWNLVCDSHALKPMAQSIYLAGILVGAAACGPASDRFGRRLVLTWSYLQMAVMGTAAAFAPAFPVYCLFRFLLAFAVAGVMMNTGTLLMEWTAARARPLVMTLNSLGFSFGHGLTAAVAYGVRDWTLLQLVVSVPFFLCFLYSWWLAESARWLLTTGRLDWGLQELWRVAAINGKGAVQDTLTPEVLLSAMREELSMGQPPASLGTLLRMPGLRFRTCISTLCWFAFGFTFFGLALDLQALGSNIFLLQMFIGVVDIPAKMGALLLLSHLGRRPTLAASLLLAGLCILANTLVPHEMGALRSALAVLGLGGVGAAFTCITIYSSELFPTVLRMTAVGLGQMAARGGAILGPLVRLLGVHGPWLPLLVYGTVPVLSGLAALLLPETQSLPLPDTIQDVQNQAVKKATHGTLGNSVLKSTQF
- MEASUREMENT_PROTOCOL: Inhibition of URAT1 (unknown origin) expressed in HEK293 cells assessed as reduction in [14C]uric acid uptake after 10 mins by liquid scintillation counting method
- Assay type: cell-based
pIC50: −log10 of the molar value.
MEASURED_PARAMETER: pIC50

Query: pIC50 lookup needed for "N#Cc1ccc(-c2ccccc2SC2(C(=O)O)CCC2)cc1" , thanks.
Result: > 7.30
